- Test system: S. aureus Sa228c
- ASSAY METHOD TEXT: MIC, microdilution in CAMHB 24 h
- Format: cell-based, Staphylococcus aureus
- COND: Staphylococcus aureus, MRSA
OBSERVABLE: MIC

[[record]]
query_smiles = "CN[C@H](CC(C)C)C(=O)N[C@H]1C(=O)N[C@@H](CC(N)=O)C(=O)N[C@H]2C(=O)N[C@H]3C(=O)N[C@H](C(=O)N[C@H](C(=O)O)c4cc(O)cc(O)c4-c4cc3ccc4O)[C@H](O)c3ccc(c(Cl)c3)Oc3cc2cc(c3O[C@@H]2O[C@H](CO)[C@@H](O)[C@H](O)[C@H]2O[C@H]2C[C@](C)(N)[C@H](O)[C@H](C)O2)Oc2ccc(cc2Cl)[C@H]1O"
test_result = "1 µg/mL"

[[record]]
query_smiles = "CCn1cc(C(=O)O)c(=O)c2cc(F)c(N3CCNCC3)cc21"
test_result = "> 64 µg/mL"

[[record]]
query_smiles = "CC[C@H]1OC(=O)[C@H](C)[C@@H](O[C@H]2C[C@@](C)(OC)[C@@H](O)[C@H](C)O2)[C@H](C)[C@@H](O[C@@H]2O[C@H](C)C[C@H](N(C)C)[C@H]2O)[C@](C)(O)C[C@@H](C)C(=O)[C@H](C)[C@@H](O)[C@]1(C)O"
test_result = "> 64 µg/mL"

[[record]]
query_smiles = "NC[C@H]1O[C@H](O[C@H]2[C@H](O)[C@@H](O[C@H]3O[C@H](CO)[C@@H](O)[C@H](N)[C@H]3O)[C@H](N)C[C@@H]2N)[C@H](O)[C@@H](O)[C@@H]1O"
test_result = "512 to 1020 µg/mL"

[[record]]
query_smiles = "O=C(O)c1cn(C2CC2)c2cc(N3CCNCC3)c(F)cc2c1=O"
test_result = "> 64 µg/mL"


* * *

- Tested on: S. aureus CF6B-L
- ASSAY METHOD TEXT: MIC, microdilution in CAMHB 24 h
- Type: cell-based, Staphylococcus aureus
- COND: Staphylococcus aureus, CF6BL; CF6B-L; Human (CF lungs); read-out: MIC
MIC: recorded values
OBSERVABLE: MIC

[[record]]
query_smiles = "CC[C@H]1OC(=O)[C@H](C)[C@@H](O[C@H]2C[C@@](C)(OC)[C@@H](O)[C@H](C)O2)[C@H](C)[C@@H](O[C@@H]2O[C@H](C)C[C@H](N(C)C)[C@H]2O)[C@](C)(O)C[C@@H](C)C(=O)[C@H](C)[C@@H](O)[C@]1(C)O"
test_result = "0.5 to 2 µg/mL"

[[record]]
query_smiles = "CCn1cc(C(=O)O)c(=O)c2cc(F)c(N3CCNCC3)cc21"
test_result = "> 64 µg/mL"

[[record]]
query_smiles = "NC[C@H]1O[C@H](O[C@H]2[C@H](O)[C@@H](O[C@H]3O[C@H](CO)[C@@H](O)[C@H](N)[C@H]3O)[C@H](N)C[C@@H]2N)[C@H](N)C[C@@H]1O"
test_result = "256 µg/mL"

[[record]]
query_smiles = "O=C(O)c1cn(C2CC2)c2cc(N3CCNCC3)c(F)cc2c1=O"
test_result = "> 64 µg/mL"

[[record]]
query_smiles = "NC[C@H]1O[C@H](O[C@H]2[C@H](O)[C@@H](O[C@H]3O[C@H](CO)[C@@H](O)[C@H](N)[C@H]3O)[C@H](N)C[C@@H]2N)[C@H](O)[C@@H](O)[C@@H]1O"
test_result = "1020 µg/mL"

